target: T1, sIL-6R (soluble IL-6 receptor; SBH Sciences) (human, UniProt P08887 20-365)
T1 construct: also called human IL-6R
T1 sequence: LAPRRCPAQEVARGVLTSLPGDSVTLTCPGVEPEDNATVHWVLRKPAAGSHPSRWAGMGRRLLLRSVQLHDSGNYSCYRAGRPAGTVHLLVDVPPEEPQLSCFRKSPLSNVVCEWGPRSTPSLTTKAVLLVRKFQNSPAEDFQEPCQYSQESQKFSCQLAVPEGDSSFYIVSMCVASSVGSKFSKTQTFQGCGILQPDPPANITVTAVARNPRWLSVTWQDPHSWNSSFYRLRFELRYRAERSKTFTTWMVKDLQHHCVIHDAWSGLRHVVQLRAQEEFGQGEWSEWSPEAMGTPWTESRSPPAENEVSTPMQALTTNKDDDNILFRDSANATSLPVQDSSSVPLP
test protocol: SPR (BIAcore 3000), antibody on chip, sIL-6R analyte, 25 C
assay readout: Relative Affinity

Bench note: what Relative Affinity did 206# (antibody, human IgG1, kappa, V domains shown, also called Sample # 206) VH: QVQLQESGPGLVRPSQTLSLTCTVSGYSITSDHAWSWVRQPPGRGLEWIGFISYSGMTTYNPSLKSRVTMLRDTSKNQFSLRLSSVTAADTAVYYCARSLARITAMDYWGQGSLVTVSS VL: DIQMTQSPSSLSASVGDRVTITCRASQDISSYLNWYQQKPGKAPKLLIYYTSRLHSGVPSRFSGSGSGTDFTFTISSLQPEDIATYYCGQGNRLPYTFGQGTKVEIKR show?
4770 fold vs 25 (Tocilizumab)

Please do the same for 249# (antibody, human IgG1, kappa, V domains shown) VH: QVQLQESGPGLVRPSQTLSLTCTVSGYSITSDHAWSWVRQPPGRGLEWIGYISYSGMTTYNPSLKSRVTMLRDTSKNQFSLRLSSVTAADTAVYYCARCLARATAMDYWGQGSLVTVSS VL: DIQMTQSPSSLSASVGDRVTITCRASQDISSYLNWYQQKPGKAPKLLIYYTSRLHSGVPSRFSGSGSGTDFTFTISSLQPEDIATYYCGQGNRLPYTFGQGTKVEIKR as well.
11.6 fold vs 25 (Tocilizumab)

Similarly, 251# (antibody, human IgG1, kappa, V domains shown, also called Sample # 251) VH: QVQLQESGPGLVRPSQTLSLTCTVSGYSITSDHAWSWVRQPPGRGLEWIGYISYSGMITYNPSLKSRVTMLRDTSKNQFSLRLSSVTAADTAVYYCARSLARITAMDYWGQGSLVTVSS VL: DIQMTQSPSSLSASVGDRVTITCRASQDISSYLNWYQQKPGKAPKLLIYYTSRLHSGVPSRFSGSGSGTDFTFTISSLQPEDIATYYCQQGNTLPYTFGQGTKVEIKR ?
3.5 fold vs 25 (Tocilizumab)
